Just for reference, patent US12466821B2 is where these values come from.

target-entity: human CMV DNA polymerase UL54 (Human cytomegalovirus (strain AD169) (HHV-5) (Human herpesvirus 5), UniProt P08546)
experimental-protocol: CMV polymerase biochemical assay (molecular beacon-based)
Classify: 1 when IC50 is strictly less than 0.005 µM; -1 when IC50 is not.

Inquiry: Does the reported IC50 of `CS(=O)(=O)C1(CN2CCn3c(ccc(C(=O)NCc4ncc(Cl)cn4)c3=O)C2=O)CC1` stay below 0.005 µM?
Reply text: -1

Inquiry: Does the reported IC50 of `O=C(NCc1ccc(Cl)cc1)c1ccc2n(c1=O)CCN(CCN1CCCS1(=O)=O)C2=O` stay below 0.005 µM?
Reply text: -1

Inquiry: Does the reported IC50 of `CN(C)S(=O)(=O)C1(CN2CCn3c(ccc(C(=O)NCc4ccc(Cl)cc4)c3=O)C2=O)CC1` stay below 0.005 µM?
Reply text: 1

Inquiry: Does the reported IC50 of `O=C(NCc1ccc(F)c(F)c1)c1ccc2n(c1=O)CCN(CC1(S(=O)(=O)C3CC3)CC1)C2=O` stay below 0.005 µM?
Reply text: -1

Inquiry: Does the reported IC50 of `C[S@+]([O-])C1(CN2CCn3c(ccc(C(=O)NCc4ccc(C#N)cc4)c3=O)C2=O)CC1` stay below 0.005 µM?
Reply text: -1

Inquiry: Does the reported IC50 of C[C@@H](CCO)S(=O)(=O)C1(CN2CCn3c(ccc(C(=O)NCc4ccc(C#N)cc4)c3=O)C2=O)CC1 (single isomer, unassigned) stay below 0.005 µM?
Reply text: 1

Inquiry: Does the reported IC50 of `CS(=O)(=O)CCCN1CCn2c(c(N3CCCC3)cc(C(=O)NCc3ccc(Cl)cc3)c2=O)C1=O` stay below 0.005 µM?
Reply text: -1

Inquiry: Does the reported IC50 of `CN(CCN1CCn2c(c(C(F)F)cc(C(=O)NCc3ccc(Cl)cc3)c2=O)C1=O)S(C)(=O)=O` stay below 0.005 µM?
Reply text: -1

Inquiry: Does the reported IC50 of CC1CN(CCN(C)S(C)(=O)=O)C(=O)c2ccc(C(=O)NCc3ccc(Cl)cc3)c(=O)n21 (centres unmarked) stay below 0.005 µM?
Reply text: -1

Inquiry: Does the reported IC50 of `COC1(S(=O)(=O)C2(CN3CCn4c(ccc(C(=O)NCc5ccc(C#N)c(F)c5)c4=O)C3=O)CC2)CC1` stay below 0.005 µM?
Reply text: 1

Inquiry: Does the reported IC50 of `O=C(NCc1ccc(Cl)cc1)c1ccc2n(c1=O)CCN(CC1(N3CCOC3=O)CC1)C2=O` stay below 0.005 µM?
Reply text: -1

Inquiry: Does the reported IC50 of `O=C(NCc1ccc(Cl)cc1)c1cc(F)c2n(c1=O)CCN(CCN1CCCS1(=O)=O)C2=O` stay below 0.005 µM?
Reply text: -1

Inquiry: Does the reported IC50 of `NS(=O)(=O)C1(CN2CCn3c(ccc(C(=O)NCc4ccc(Cl)cc4)c3=O)C2=O)CC1` stay below 0.005 µM?
Reply text: 1

Inquiry: Does the reported IC50 of `O=C(NCc1ccc(Cl)cc1)c1ccc2n(c1=O)CCN(CC1(S(=O)(=O)N3CC(F)(F)C3)CC1)C2=O` stay below 0.005 µM?
Reply text: 1

Inquiry: Does the reported IC50 of `CCS(=O)(=O)C1(CN2CCn3c(ccc(C(=O)NCc4ccc(C#N)c(F)c4)c3=O)C2=O)CC1` stay below 0.005 µM?
Reply text: 1

Inquiry: Does the reported IC50 of `COCCN1CCn2c(ccc(C(=O)NCc3ccc(Cl)cc3)c2=O)C1=O` stay below 0.005 µM?
Reply text: -1

Inquiry: Does the reported IC50 of `O=C(NCc1ccc(Cl)cc1)c1ccc2n(c1=O)CCN(CC1(S(=O)(=O)C3COC3)CC1)C2=O` stay below 0.005 µM?
Reply text: 1
